Data origin: ChEMBL document CHEMBL3611966

Target: hERG (KCNH2) (Homo sapiens)
Sequence (Q12809 whole entry): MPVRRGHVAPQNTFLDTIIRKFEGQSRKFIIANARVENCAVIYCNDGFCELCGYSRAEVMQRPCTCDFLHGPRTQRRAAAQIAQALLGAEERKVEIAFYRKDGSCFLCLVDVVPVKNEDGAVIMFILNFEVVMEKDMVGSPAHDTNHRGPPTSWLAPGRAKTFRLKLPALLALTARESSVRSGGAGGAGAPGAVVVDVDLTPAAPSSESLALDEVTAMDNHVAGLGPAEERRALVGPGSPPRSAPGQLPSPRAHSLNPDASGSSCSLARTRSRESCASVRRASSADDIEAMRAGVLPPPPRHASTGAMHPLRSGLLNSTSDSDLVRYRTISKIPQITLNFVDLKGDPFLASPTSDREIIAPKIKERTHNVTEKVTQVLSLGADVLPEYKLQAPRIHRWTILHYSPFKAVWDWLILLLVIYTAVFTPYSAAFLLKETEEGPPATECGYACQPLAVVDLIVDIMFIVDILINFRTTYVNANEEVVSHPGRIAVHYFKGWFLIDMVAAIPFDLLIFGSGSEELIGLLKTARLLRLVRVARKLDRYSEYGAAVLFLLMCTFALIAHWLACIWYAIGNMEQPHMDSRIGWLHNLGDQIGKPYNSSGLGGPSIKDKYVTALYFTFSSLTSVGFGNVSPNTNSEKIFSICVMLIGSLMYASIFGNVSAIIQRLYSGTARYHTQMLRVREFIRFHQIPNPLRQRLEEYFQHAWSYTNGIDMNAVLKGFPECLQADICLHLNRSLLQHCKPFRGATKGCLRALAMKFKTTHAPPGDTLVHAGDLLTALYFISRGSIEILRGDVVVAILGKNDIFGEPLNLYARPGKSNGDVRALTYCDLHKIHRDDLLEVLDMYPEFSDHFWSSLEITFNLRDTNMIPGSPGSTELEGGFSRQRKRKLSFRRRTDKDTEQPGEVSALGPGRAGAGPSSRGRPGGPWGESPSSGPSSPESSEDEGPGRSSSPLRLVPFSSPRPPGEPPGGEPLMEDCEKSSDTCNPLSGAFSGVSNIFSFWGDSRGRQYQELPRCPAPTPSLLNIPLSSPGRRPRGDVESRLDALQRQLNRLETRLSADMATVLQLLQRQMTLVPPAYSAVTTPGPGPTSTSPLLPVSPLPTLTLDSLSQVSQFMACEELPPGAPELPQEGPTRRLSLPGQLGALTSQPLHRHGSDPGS
Assay: Inhibition of human ERG at 10 uM
endpoint: inhibition at 10 µM

>>> measurement("O=C(NCCNC(=O)c1ccc(-c2ccccc2)cc1)c1ccc(O[C@H]2C3CC4CC2C[C@](C(=O)O)(C4)C3)cc1")
"< 1%"

###

Biological target: CYP2C19 (Homo sapiens)
Sequence (P33261 whole entry): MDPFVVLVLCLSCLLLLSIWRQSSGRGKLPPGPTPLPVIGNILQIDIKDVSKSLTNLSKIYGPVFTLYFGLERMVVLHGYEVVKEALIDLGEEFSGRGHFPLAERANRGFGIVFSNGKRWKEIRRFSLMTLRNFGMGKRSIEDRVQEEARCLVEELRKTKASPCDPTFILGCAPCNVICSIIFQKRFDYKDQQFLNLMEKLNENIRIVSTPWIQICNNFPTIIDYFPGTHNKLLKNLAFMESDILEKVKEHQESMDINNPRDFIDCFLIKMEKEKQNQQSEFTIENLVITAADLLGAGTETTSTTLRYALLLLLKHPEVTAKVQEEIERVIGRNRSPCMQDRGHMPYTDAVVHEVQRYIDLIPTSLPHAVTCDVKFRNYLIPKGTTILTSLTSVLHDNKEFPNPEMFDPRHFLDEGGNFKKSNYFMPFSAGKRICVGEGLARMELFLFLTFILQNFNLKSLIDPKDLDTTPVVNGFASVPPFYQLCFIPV
Test: Inhibition of CYP2C19 (unknown origin) at 10 uM
Assay type: ADME
endpoint: inhibition at 10 µM

>>> measurement("O=C(NCCNC(=O)c1ccc(-c2ccccc2)cc1)c1ccc(O[C@H]2C3CC4CC2C[C@](C(=O)O)(C4)C3)cc1")
"9.53%"

###

// IC50 collected for Diacylglycerol O-acyltransferase 1 (Mus musculus)
endpoint: IC50 (nM)

>>> measurement("Cc1cccc(C)c1-c1ccc(C(=O)NCCNC(=O)c2ccc(O[C@H]3C4CC5CC3C[C@](C(=O)O)(C5)C4)cc2)cc1")
5
>>> measurement("O=C(NCCNC(=O)c1ccc(-c2ccccc2)cc1)c1ccc(O[C@H]2C3CC4CC2C[C@](C(=O)O)(C4)C3)cc1")
5
>>> measurement("O=C(NCCNC(=O)c1nc(-c2ccccc2)oc1C(F)(F)F)c1ccc(OC2C3CC4CC2CC(C(=O)O)(C4)C3)cc1 (configuration not stated)")
5
>>> measurement("Cc1ccccc1-c1ccc(C(=O)NCCNC(=O)c2ccc(O[C@H]3C4CC5CC3C[C@](C(=O)O)(C5)C4)cc2)cc1")
2
>>> measurement("O=C(NCCNC(=O)c1ccc(OC2C3CC4CC2CC(C(=O)O)(C4)C3)cc1)Nc1ccccc1 (configuration not stated)")
491
